- target or system: High affinity choline transporter 1 (Homo sapiens) (UniProt Q9GZV3)
- Sequence (Q9GZV3 whole entry, looked up): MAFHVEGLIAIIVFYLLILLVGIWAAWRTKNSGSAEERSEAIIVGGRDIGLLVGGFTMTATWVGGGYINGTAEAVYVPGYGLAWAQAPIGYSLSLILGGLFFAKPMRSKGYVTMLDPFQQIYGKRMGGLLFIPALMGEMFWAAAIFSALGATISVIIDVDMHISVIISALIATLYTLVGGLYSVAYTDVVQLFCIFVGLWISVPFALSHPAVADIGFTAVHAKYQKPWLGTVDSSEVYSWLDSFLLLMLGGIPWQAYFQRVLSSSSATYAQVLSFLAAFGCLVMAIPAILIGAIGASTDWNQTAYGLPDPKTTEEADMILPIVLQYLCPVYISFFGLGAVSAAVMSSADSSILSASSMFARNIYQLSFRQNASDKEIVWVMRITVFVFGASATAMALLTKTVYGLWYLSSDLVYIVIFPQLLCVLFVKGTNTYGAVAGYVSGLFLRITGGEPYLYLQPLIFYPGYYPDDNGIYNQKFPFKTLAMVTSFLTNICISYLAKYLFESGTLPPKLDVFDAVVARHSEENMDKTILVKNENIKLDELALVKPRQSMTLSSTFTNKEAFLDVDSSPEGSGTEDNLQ
- test method notes: CHT activators, confirmation, cell-based, membrane potential dye, duplicate (AID 504833)
- measurement setup: CHT-expressing cells, membrane potential dye fluorescence (FDSS); at 10 µM; active compounds read high; % of choline EC20–EC90 response window; HEK293 expressing CHT LV-AA mutant; choline added at its EC20
About 2,200 (88%) of roughly 2,500 compounds were called active. So high a share suggests a set chosen from earlier hits. These entries were drawn from the full list.
Reported activation values are given for each entry in this list.
Only the number, expressed in %, is required.

* CN1CCN(c2cc(N3CCNCC3)ccc2[N+](=O)[O-])CC1 | 80.3
* CCCCCn1c(=O)c(C(=O)Nc2c(C)n(C)n(-c3ccccc3)c2=O)c(O)c2ccccc21 | 6.79
* CCN1CCN(c2ccc([N+](=O)[O-])cc2C#N)CC1 | 43.4
* CCOc1ccc(-c2cc(C)[n+](CCN(CC)CC)c(-c3ccc(OCC)cc3)c2)cc1 | 34.4
* CC[N+](CC)(CC)CCCCCCCCCC[N+](CC)(CC)CC | 41

Request: So what does the record say about activation for `Cc1nc2ccc(N3CCN(C)CC3)cc2nc1C` ?
Response: 20.3

Just for reference, PubChem BioAssay AID504833 is where these values come from.
